Each entry below carries its reported AC35.
- Test system: HepG2 viability, CellTiter-Glo ATP luminescence, 72 h
- method summary: viability loss in human hepatoma cells – cell-based, CellTiter-Glo luminescence, cherry-pick, set 2, cytotoxicity control, dose response (AID 743395)

[
  {
    "smiles structure": "CCOC(=O)c1c(C)[nH]c(C(=O)N/N=C/c2ccc(OC)c(OC)c2)c1C",
    "target entity": "HepG2 viability, CellTiter-Glo ATP luminescence, 72 h",
    "AC35": "6.01 µM"
  },
  {
    "smiles structure": "COc1cc(C(=O)Nc2ccc3c(c2)CCN3C(C)=O)cc(OC)c1OC",
    "target entity": "HepG2 viability, CellTiter-Glo ATP luminescence, 72 h",
    "AC35": "3.94 µM"
  },
  {
    "smiles structure": "C[C@H](CO)N1C[C@H](C)[C@H](CN(C)C(=O)NC2CCCCC2)Oc2cc(C#Cc3cccc(F)c3)ccc2S1(=O)=O",
    "target entity": "HepG2 viability, CellTiter-Glo ATP luminescence, 72 h",
    "AC35": "10.9 µM"
  },
  {
    "smiles structure": "CN(C)c1ccc(-[n+]2c(-c3ccccc3)cc(-c3ccccc3)cc2-c2ccccc2)cc1",
    "target entity": "HepG2 viability, CellTiter-Glo ATP luminescence, 72 h",
    "AC35": "3.01 µM"
  },
  {
    "smiles structure": "O=C(C[C@@H]1CC[C@@H]2[C@H](COC[C@H](O)CN2Cc2ccc(Oc3ccccc3)cc2)O1)N1CCN(c2ccccc2)CC1",
    "target entity": "HepG2 viability, CellTiter-Glo ATP luminescence, 72 h",
    "AC35": "7.84 µM"
  },
  {
    "smiles structure": "O=C1c2ccc3c4c(ccc(c24)C(=O)N1CCCCO)C(=O)N(CCCCO)C3=O",
    "target entity": "HepG2 viability, CellTiter-Glo ATP luminescence, 72 h",
    "AC35": "2.63 µM"
  },
  {
    "smiles structure": "CCCC(=O)Nc1nc2ccc(NC(=O)c3c(F)c(F)c(OC)c(F)c3F)cc2s1",
    "target entity": "HepG2 viability, CellTiter-Glo ATP luminescence, 72 h",
    "AC35": "7.54 µM"
  },
  {
    "smiles structure": "CC(=O)Nc1ccc2cc3ccc(NC(C)=O)cc3nc2c1",
    "target entity": "HepG2 viability, CellTiter-Glo ATP luminescence, 72 h",
    "AC35": "11.6 µM"
  },
  {
    "smiles structure": "COc1cc(-c2nccc3cc4c(cc23)OCO4)cc(OC)c1OC",
    "target entity": "HepG2 viability, CellTiter-Glo ATP luminescence, 72 h",
    "AC35": "5.6 µM"
  }
]

* * *

- Tested on: HepG2 viability, CellTiter-Glo ATP luminescence, 72 h
- method summary: viability loss in human hepatoma cells – cell-based, CellTiter-Glo luminescence, cherry-pick, set 2, cytotoxicity control, dose response (AID 743395)

[
  {
    "compound": "COc1ccc2c3c([nH]c2c1)[C@H](CO)N(S(C)(=O)=O)CC31CCN(Cc2cccc(F)c2)CC1",
    "target entity": "HepG2 viability, CellTiter-Glo ATP luminescence, 72 h",
    "AC35": "5.92 µM"
  },
  {
    "compound": "COc1ccc2c3c([nH]c2c1)[C@@H](CO)N(C(=O)C1CCOCC1)CC31CCN(Cc2cccc(F)c2)CC1",
    "target entity": "HepG2 viability, CellTiter-Glo ATP luminescence, 72 h",
    "AC35": "1.04 µM"
  },
  {
    "compound": "COc1ccc(-c2ccnc(-c3ccc(O)cc3)n2)cc1",
    "target entity": "HepG2 viability, CellTiter-Glo ATP luminescence, 72 h",
    "AC35": "10.1 µM"
  },
  {
    "compound": "COc1cccc(-c2cnc3c(NC(C)=O)cc(-c4cc(F)ccc4OC)cn23)c1",
    "target entity": "HepG2 viability, CellTiter-Glo ATP luminescence, 72 h",
    "AC35": "12.5 µM"
  },
  {
    "compound": "COc1ccccc1Nc1c2c(nc3ccccc13)CCC2",
    "target entity": "HepG2 viability, CellTiter-Glo ATP luminescence, 72 h",
    "AC35": "7.12 µM"
  },
  {
    "compound": "CCC(=O)NC(c1ccc(C)cc1)c1ccc2cccnc2c1O (stereo not drawn)",
    "target entity": "HepG2 viability, CellTiter-Glo ATP luminescence, 72 h",
    "AC35": "1.42 µM"
  },
  {
    "compound": "Cc1ccc(/C=N/NC(=O)c2ccc3ccccc3c2)s1",
    "target entity": "HepG2 viability, CellTiter-Glo ATP luminescence, 72 h",
    "AC35": "9.16 µM"
  },
  {
    "compound": "COc1ccccc1NC1=C(NC(C)=O)C(=O)c2ccccc2C1=O",
    "target entity": "HepG2 viability, CellTiter-Glo ATP luminescence, 72 h",
    "AC35": "12.2 µM"
  }
]

Where do the numbers come from? From PubChem BioAssay AID743395.
